From: patent US20250313574A1

- target.of.assay: Recombinant Human Siglec-3/CD33 protein (His-CD33) (Homo sapiens (Human))
- Sequence (P20138 18-259): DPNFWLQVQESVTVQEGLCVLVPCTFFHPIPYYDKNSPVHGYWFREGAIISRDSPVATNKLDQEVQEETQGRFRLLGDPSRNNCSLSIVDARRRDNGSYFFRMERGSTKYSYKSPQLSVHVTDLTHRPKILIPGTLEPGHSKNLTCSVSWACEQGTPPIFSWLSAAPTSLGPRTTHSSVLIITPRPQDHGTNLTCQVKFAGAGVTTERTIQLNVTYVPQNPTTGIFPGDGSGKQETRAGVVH
- protocol.text: Differential scanning fluorimetry (DSF) thermal shift assay
- Format: binding
- condition.context: difference in thermal melt of CD33 protein (0.5 μM) with 50 μM compound
Label rule, in plain words: DSF (dTmD) of 3 °C and up is 1, under 3 °C is 0.

CC(=O)N[C@H]1[C@H]([C@H](O)[C@H](O)CNC(=O)c2cc(C)c(O)c(C)c2)O[C@@](C/C=C/c2cccc(CNC(=O)c3ccc(NC(C)(C)C)cc3)c2)(C(=O)O)C[C@@H]1O [A-257] : 1
Cc1cc2cc(C)c1OCCOC[C@@H](NC(=O)C1CCCOC1)COC/C=C/C[C@]1(C(=O)O)C[C@H](O)[C@@H](NC(=O)Cn3cc(C4CCCCC4)nn3)[C@@H](O1)[C@H](O)[C@H](O)CNC2=O (stereo partly shown) [A-341] : 0
Cc1cc(C(=O)NC[C@@H](O)[C@@H](O)[C@@H]2O[C@@](C/C=C/c3cccc(CNC(=O)c4ccccc4C(F)(F)F)c3)(C(=O)O)C[C@H](O)[C@H]2NC(=O)Cn2cc(C3CCCCC3)nn2)cc(C)c1O [A-269] : 1
Cc1cc2cc(C)c1OCCCOC[C@H](NC(=O)C1CCCOC1)COC/C=C/C[C@]1(C(=O)O)C[C@H](O)[C@@H](NC(=O)Cn3cc(C4CCCCC4)nn3)[C@@H](O1)[C@H](O)[C@H](O)CNC2=O (stereo partly shown) [A-335] : 1
CC(=O)N[C@H]1[C@H]2O[C@](C(=O)O)(CCCCOC[C@@H](NC(=O)C3CCCOC3)COCCOc3c(C)cc(cc3C)C(=O)NC[C@@H](O)[C@H]2O)C[C@@H]1O (stereo partly shown) [A-342] : 0
CC(=O)N[C@H]1[C@H]([C@H](O)[C@H](O)CNC(=O)c2cc(C)c(O)c(C)c2)O[C@@](C/C=C/c2cccc(CNC(=O)C3(C)COC3)c2)(C(=O)O)C[C@@H]1O [A-244] : 0
Cc1cc(C(=O)NC[C@@H](O)[C@@H](O)[C@@H]2O[C@@](C/C=C/c3cccc(CNC(=O)C4CCCOC4)c3)(C(=O)O)C[C@H](O)[C@H]2NC(=O)Cn2cc(C3CCCCC3)nn2)cc(C)c1O (stereo partly shown) [A-268] : 1
Cc1cc2cc(C)c1OCCCNC(=O)CCCCCCC[C@]1(C(=O)O)C[C@H](O)[C@@H](NC(=O)Cn3cc(C4CCCCC4)nn3)[C@@H](O1)[C@H](O)[C@H](O)CNC2=O [A-344] : 0

Incoming: Can Cc1cc(C(=O)NC[C@@H](O)[C@@H](O)[C@@H]2O[C@@](C/C=C/c3cccc(CNC(=O)c4cccc(Cl)c4)c3)(C(=O)O)C[C@H](O)[C@H]2NC(=O)Cn2cc(C3CCCCC3)nn2)cc(C)c1O [A-262] be said to have DSF (dTmD) at or above 3 °C?
Outgoing: 0

Incoming: Can CC(=O)N[C@H]1[C@H]([C@H](O)[C@H](O)CNC(=O)c2cc(C)c(O)c(C)c2)O[C@@](C/C=C/c2cccc(CNC(=O)C3CCC(Nc4ncccn4)C3)c2)(C(=O)O)C[C@@H]1O (stereo partly shown) [A-255] be said to have DSF (dTmD) at or above 3 °C?
Outgoing: 1

###

- target.of.assay: Recombinant Human Siglec-3/CD33 protein (His-CD33) (Homo sapiens (Human))
- protocol.text: Differential scanning fluorimetry (DSF) thermal shift assay
- Assay type: binding
- condition.context: difference in thermal melt of CD33 protein (0.5 μM) with 50 μM compound
readout.type: DSF (dTmD)

Example entries begin here.
COc1cc(C(=O)NCc2cccc(/C=C/C[C@]3(C(=O)O)C[C@H](O)[C@@H](NC(=O)Cn4cc(C5CCCCC5)nn4)[C@H]([C@H](O)[C@H](O)CNC(=O)c4cc(C)c(O)c(C)c4)O3)c2)ccc1O : 4.5 °C
Cc1cc(C(=O)NC[C@@H](O)[C@@H](O)[C@@H]2O[C@@](OC3CCCCC3NC(=O)CN(C)C(=O)OCc3cccc(C(=O)NC4CC4)c3)(C(=O)O)C[C@H](O)[C@H]2NC(=O)Cn2cc(C3CCCCC3)nn2)cc(C)c1O (some centres unmarked) : 4.0 °C
Cc1cc(C(=O)NC[C@@H](O)[C@@H](O)[C@@H]2O[C@@](OC3CCCCC3NC(=O)CNC(=O)OCc3ccccc3)(C(=O)O)C[C@H](O)[C@H]2NC(=O)Cn2cc(C3CCCCC3)nn2)cc(C)c1O (some centres unmarked) : 3.2 °C

Incoming: For the molecule CC(=O)N[C@H]1[C@H]2O[C@](C(=O)O)(C/C=C/COC[C@@H](NC(=O)OC(C)(C)C)COCCCOc3c(C)cc(cc3C)C(=O)NC[C@@H](O)[C@H]2O)C[C@@H]1O , what DSF (dTmD) is on record?
Outgoing: 4.6 °C

Incoming: For the molecule Cc1cc(C(=O)NC[C@@H](O)[C@@H](O)[C@@H]2O[C@@](OC3CCCCC3NC(=O)CNC(=O)COC3CCCC3)(C(=O)O)C[C@H](O)[C@H]2NC(=O)Cn2cc(C3CCCCC3)nn2)cc(C)c1O (some centres unmarked) , what DSF (dTmD) is on record?
Outgoing: 1.4 °C

###

- target.of.assay: Recombinant Human Siglec-3/CD33 protein (His-CD33) (Homo sapiens (Human))
- protocol.text: Differential scanning fluorimetry (DSF) thermal shift assay
- Type: binding
- condition.context: thermal melt shift of 0.5 μM CD33 protein with 50 μM compound
Label rule, in plain words: DSF (dTmD) of 9 and up is yes (1), under 9 is no (0).

Worked set:
C=CC[C@]1(NCC[C@]2(C(=O)O)C[C@H](O)[C@@H](NC(C)=O)[C@H]([C@H](O)[C@H](O)CNC(=O)c3cc(C)c(O)c(C)c3)O2)CCN(C(=O)OC(C)(C)C)C1 : no (0)
CC(=O)N[C@H]1[C@H]([C@H](O)[C@H](O)CNC(=O)c2cc(C)c(O)c(C)c2)O[C@@](CCN2CCOC[C@@]23CCN(C(=O)N(C)C)C3)(C(=O)O)C[C@@H]1O : no (0)
CC(=O)N[C@H]1[C@H]([C@H](O)[C@H](O)CNC(=O)c2cc(C)c(=O)n(C)c2)O[C@@](CCN2CCOC[C@@]23CCN(C(=O)OC(C)(C)C)C3)(C(=O)O)C[C@@H]1O : yes (1)
CC(=O)N[C@H]1[C@H]([C@H](O)[C@H](O)CNC(=O)c2ccccc2)O[C@@](CCN2CCOC[C@@]23CCN(C(=O)OC(C)(C)C)C3)(C(=O)O)C[C@@H]1O : no (0)
CC(=O)N[C@H]1[C@H]([C@H](O)[C@H](O)CNC(=O)c2cc(C)c(O)c(C)c2)O[C@@](CCN2CC(=O)N(C)C[C@@]23CCN(C(=O)OC(C)(C)C)C3)(C(=O)O)C[C@@H]1O : yes (1)
CC(=O)N[C@H]1[C@H]([C@H](O)[C@H](O)CNC(=O)c2ccc(C(F)(F)F)c(C(F)(F)F)c2)O[C@@](CCN2CCOC[C@@]23CCN(C(=O)OC(C)(C)C)C3)(C(=O)O)C[C@@H]1O : no (0)
CC(=O)N[C@H]1[C@H]([C@H](O)[C@H](O)CNC(=O)c2cc(C)c3[nH]ncc3c2)O[C@@](CCN2CCOC[C@@]23CCN(C(=O)OC(C)(C)C)C3)(C(=O)O)C[C@@H]1O : yes (1)
CC(=O)N[C@H]1[C@H]([C@H](O)[C@H](O)CNC(=O)c2cc(C)c(O)c(C)c2)O[C@@](CCN2CCCC23CN(C(=O)OC(C)(C)C)C3)(C(=O)O)C[C@@H]1O : no (0)
COc1ccc(C(=O)NC[C@@H](O)[C@@H](O)[C@@H]2O[C@@](CCN3CCOC[C@@]34CCN(C(=O)OC(C)(C)C)C4)(C(=O)O)C[C@H](O)[C@H]2NC(C)=O)cc1OC : yes (1)
CC(=O)N[C@H]1[C@H]([C@H](O)[C@H](O)CNC(=O)c2cc(C)c(O)c(C)c2)O[C@@](CCN2C[C@H](C)OC[C@@]23CCN(C(=O)OC(C)(C)C)C3)(C(=O)O)C[C@@H]1O : yes (1)

Incoming: Can CC(=O)N[C@H]1[C@H]([C@H](O)[C@H](O)CNC(=O)c2c[nH]c(C)n2)O[C@@](CCN2CCOC[C@@]23CCN(C(=O)OC(C)(C)C)C3)(C(=O)O)C[C@@H]1O be said to have DSF (dTmD) at or above 9?
Outgoing: no (0)

Incoming: Can CC(=O)N[C@H]1[C@H]([C@H](O)[C@H](O)CNC(=O)c2cccc(SC(F)(F)F)c2)O[C@@](CCN2CCOC[C@@]23CCN(C(=O)OC(C)(C)C)C3)(C(=O)O)C[C@@H]1O be said to have DSF (dTmD) at or above 9?
Outgoing: no (0)

Incoming: Can CC(=O)N[C@H]1[C@H]([C@H](O)[C@H](O)CNC(=O)c2ccc3c(=O)n(C)cnc3c2)O[C@@](CCN2CCOC[C@@]23CCN(C(=O)OC(C)(C)C)C3)(C(=O)O)C[C@@H]1O be said to have DSF (dTmD) at or above 9?
Outgoing: no (0)

Incoming: Can CC(=O)N[C@H]1[C@H]([C@H](O)[C@H](O)CNC(=O)c2cccc(Br)c2)O[C@@](CCN2CCOC[C@@]23CCN(C(=O)OC(C)(C)C)C3)(C(=O)O)C[C@@H]1O be said to have DSF (dTmD) at or above 9?
Outgoing: yes (1)

Incoming: Can COc1cc(C(=O)NC[C@@H](O)[C@@H](O)[C@@H]2O[C@@](CCN3CCOC[C@@]34CCN(C(=O)OC(C)(C)C)C4)(C(=O)O)C[C@H](O)[C@H]2NC(C)=O)cc(OC)c1OC be said to have DSF (dTmD) at or above 9?
Outgoing: yes (1)

Incoming: Can CC(=O)N[C@H]1[C@H]([C@H](O)[C@H](O)CNC(=O)c2cc(C)c(O)c(C)c2)O[C@@](CCN2CCOC[C@@]23CCN(C(=O)N[C@@H](C)c2ccccc2)C3)(C(=O)O)C[C@@H]1O be said to have DSF (dTmD) at or above 9?
Outgoing: yes (1)

Incoming: Can CC(=O)N[C@H]1[C@H]([C@H](O)[C@H](O)CNC(=O)c2cc(C)n(C)n2)O[C@@](CCN2CCOC[C@@]23CCN(C(=O)OC(C)(C)C)C3)(C(=O)O)C[C@@H]1O be said to have DSF (dTmD) at or above 9?
Outgoing: yes (1)
